targetDesc: EGFR del19/C797S (Homo sapiens, UniProt P00533, C797S/DEL746-750)
Sequence (P00533 with tags, fused parts or gaps DEL746-750/C797S): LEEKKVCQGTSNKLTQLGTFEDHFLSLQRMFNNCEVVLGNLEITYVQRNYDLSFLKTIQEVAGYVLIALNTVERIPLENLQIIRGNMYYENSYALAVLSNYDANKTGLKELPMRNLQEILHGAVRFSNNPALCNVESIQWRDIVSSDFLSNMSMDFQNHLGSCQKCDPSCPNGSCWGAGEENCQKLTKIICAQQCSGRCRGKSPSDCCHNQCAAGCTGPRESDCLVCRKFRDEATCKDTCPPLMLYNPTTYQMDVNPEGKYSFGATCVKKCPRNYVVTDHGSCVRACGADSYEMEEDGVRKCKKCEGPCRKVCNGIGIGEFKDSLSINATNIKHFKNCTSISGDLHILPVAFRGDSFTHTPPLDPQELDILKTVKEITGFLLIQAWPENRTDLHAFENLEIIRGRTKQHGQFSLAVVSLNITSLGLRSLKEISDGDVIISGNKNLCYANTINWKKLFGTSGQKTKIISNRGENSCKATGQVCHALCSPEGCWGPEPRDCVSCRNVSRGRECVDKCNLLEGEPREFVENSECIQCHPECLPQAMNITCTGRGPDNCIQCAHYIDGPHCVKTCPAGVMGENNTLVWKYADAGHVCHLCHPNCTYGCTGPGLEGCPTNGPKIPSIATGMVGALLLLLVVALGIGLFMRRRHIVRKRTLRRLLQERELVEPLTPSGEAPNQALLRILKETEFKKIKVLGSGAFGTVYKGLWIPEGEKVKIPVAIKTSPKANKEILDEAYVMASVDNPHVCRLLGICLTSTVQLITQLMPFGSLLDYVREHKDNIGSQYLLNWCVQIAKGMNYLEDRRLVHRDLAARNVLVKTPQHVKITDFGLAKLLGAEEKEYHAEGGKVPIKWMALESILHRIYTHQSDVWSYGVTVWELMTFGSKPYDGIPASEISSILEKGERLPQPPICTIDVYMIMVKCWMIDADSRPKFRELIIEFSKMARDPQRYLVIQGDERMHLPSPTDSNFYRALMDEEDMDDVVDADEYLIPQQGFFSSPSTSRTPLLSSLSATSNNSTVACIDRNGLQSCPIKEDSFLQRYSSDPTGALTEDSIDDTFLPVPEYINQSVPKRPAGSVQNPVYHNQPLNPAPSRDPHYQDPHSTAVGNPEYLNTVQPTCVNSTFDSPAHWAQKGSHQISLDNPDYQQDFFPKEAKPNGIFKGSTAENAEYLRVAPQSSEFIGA
experimentSummary: Biochemical EGFR kinase assay (Lance Ultra TR-FRET), del19/C797S
conditionSummary: IC50 del19/C797S (nM) 100 μM ATP, 100 μM ATP
Protocol: Biochemical EGFR kinase assays were conducted using Lance Ultra time-resolved fluorescence resonance energy transfer (TR-FRET) technology from Perkin-Elmer. […] Each kinase reactions were incubated at room temperature for 1 hour and then stopped by the addition of 4 μL of stop solution (10 mM EDTA). […] After 60 minutes incubation at room temperature the LANCE signal was measured on an EnVision Multilabel Reader (Perkin-Elmer). […]
measure: IC50 (nM)

Answered cases to consult:
molecule	IC50 [nM]
CC1(CO)CCN(c2cc(Nc3ccnc(-c4cnn(S(=O)(=O)C5CC5)c4)n3)ncc2F)CC1 [Example 85]	146
O=C(c1cnc(Nc2ccnc(-c3cnn(S(=O)(=O)C4CC4)c3)n2)cc1N[C@H]1CC[C@@H](O)CC1)C1CC1 [Example 23]	2.4

[A] O=C(c1cnc(Nc2ccnc(-c3cnn(S(=O)(=O)C4CC4)c3)n2)cc1NCCC1(O)CC1)C1CC1 [Example 29]
[B] CC(C)Nc1cc(Nc2ccnc(-c3cnn(S(=O)(=O)C4CC4)c3)n2)ncc1C(=O)NCCF [Example 74]
[C] O=C(c1cnc(Nc2ccnc(-c3cnn(S(=O)(=O)C4CC4)c3)n2)cc1NC1CCOCC1)C1CC1 [Example 35]
[D] CC(C)(O)[C@H]1CC[C@@H](Nc2cc(Nc3ccnc(-c4cnn(S(=O)(=O)C5CC5)c4)n3)ncc2C(=O)C(F)F)CC1 [Example 50]
Query: Arrange by IC50, high to low. // rank by listing labels in the order requested
Response: C, B, D, A

----------
targetDesc: EGFR L858R/T790M/C797S (Homo sapiens, UniProt P00533, C797S/L858R/T790M)
Sequence (P00533 25-1210 T790M/C797S/L858R): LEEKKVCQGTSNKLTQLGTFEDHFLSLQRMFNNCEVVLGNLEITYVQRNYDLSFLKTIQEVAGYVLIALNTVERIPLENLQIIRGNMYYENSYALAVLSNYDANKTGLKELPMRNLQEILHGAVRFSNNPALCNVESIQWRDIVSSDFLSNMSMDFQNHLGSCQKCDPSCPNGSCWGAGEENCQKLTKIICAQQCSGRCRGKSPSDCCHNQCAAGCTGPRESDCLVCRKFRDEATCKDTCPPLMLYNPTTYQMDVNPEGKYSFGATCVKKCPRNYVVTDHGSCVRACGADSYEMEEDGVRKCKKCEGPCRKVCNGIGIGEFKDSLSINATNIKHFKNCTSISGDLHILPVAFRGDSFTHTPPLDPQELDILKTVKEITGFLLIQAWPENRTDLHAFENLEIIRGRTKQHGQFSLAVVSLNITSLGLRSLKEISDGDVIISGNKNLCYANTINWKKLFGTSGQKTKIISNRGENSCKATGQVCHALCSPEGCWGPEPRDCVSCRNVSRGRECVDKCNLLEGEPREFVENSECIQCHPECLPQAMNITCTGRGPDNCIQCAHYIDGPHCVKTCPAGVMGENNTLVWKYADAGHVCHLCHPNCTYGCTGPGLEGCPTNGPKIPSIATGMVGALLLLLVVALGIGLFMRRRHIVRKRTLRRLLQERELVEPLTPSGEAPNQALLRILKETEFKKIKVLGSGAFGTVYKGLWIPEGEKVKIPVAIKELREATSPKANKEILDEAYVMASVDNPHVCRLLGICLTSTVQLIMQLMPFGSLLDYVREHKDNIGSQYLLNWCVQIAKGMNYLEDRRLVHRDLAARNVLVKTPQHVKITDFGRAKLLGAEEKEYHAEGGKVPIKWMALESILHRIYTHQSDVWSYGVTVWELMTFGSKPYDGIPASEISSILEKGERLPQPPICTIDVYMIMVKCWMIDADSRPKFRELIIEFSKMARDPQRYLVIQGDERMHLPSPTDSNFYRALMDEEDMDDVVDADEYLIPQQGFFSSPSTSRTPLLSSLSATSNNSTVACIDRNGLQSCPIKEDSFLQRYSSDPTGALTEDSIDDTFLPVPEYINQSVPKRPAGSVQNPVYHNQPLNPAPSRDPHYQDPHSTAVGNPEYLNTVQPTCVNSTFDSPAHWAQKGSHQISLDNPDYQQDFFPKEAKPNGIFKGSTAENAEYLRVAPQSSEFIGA
experimentSummary: Biochemical EGFR kinase assay (Lance Ultra TR-FRET), L858R/T790M/C797S
conditionSummary: Km ATP; read-out: IC50 L858R/T790M/C797S (nM) Km ATP
measure: IC50 (nM)

Example entries and their recorded answers appear below.
compound	targetDesc	measurementUnits	IC50
O=C(c1cnc(Nc2ccnc(-c3cnn(S(=O)(=O)C4CC4)c3)n2)cc1N[C@H]1CC[C@@H](CO)CC1)C(F)F [Example 49]	EGFR L858R/T790M/C797S (Homo sapiens, UniProt P00533, C797S/L858R/T790M)	nM	0.2
CN(C)Cc1ccc(CNc2cc(Nc3ccnc(-c4cnn(C(F)F)c4)n3)ncc2C(=O)C2CC2)cc1 [Example 16]	EGFR L858R/T790M/C797S (Homo sapiens, UniProt P00533, C797S/L858R/T790M)	nM	0.4
C[C@]1(O)CC[C@@H](Nc2cc(Nc3ccnc(-c4cnn(S(=O)(=O)C5CC5)c4)n3)ncc2C(=O)NCCF)CC1 [Example 76]	EGFR L858R/T790M/C797S (Homo sapiens, UniProt P00533, C797S/L858R/T790M)	nM	0.1
O=C(c1cnc(Nc2ccnc(-c3cnn(S(=O)(=O)C4CC4)c3)n2)cc1NCCCCF)C1CC1 [Example 4]	EGFR L858R/T790M/C797S (Homo sapiens, UniProt P00533, C797S/L858R/T790M)	nM	11.6

[I] CN[C@H]1CC[C@H](CNc2cc(Nc3ccnc(-c4cnn(S(=O)(=O)C5CC5)c4)n3)ncc2C(=O)C2CC2)CC1 [Example 88]
[II] O=C(c1cnc(Nc2ccnc(-c3cnn(S(=O)(=O)C4CC4)c3)n2)cc1NCCCO)C1CC1 [Example 9]
Query: Higher IC50: I or II ? Record your answer as the label of the chosen record.
Response: II
(II: 2.5 nM, I: 0.1 nM)
